- Test system: MDA-MB-435 melanoma
- assay.overview: NCI-60 one-dose screen, 48 h
- experimental.context: 10 µM unless noted
The panel holds about 83,000 compounds, 20% with a hit somewhere; the sample as a whole holds those more often. Activity calls are given as the source filed them. The calls were made as follows: active = growth percent below 10; inactive = the rest.
Allowed answers: true (1) for active, false (0) for inactive

Worked examples follow.
Cn1cc2c(c1)-c1c(sc3nc(-c4ccc(NC(=O)Nc5cc(C(C)(C)C)on5)cc4)cn13)CC2 : false (0)
CS(=O)(=O)c1ccc(-c2nn(-c3ccccc3)cc2/C=N/NC(=O)c2ccncc2)cc1 : false (0)
C(=C(\C1=NCCN1)n1cnc2ccccc21)/c1ccc2ccccc2c1 : false (0)
O=C(NNc1nc2cc(F)cc(F)c2n2cccc12)c1ccncn1 : false (0)
Cn1cc(-c2nn3cc(-c4ccncc4)nc3s2)c2cc(Cl)ccc21 : false (0)
COc1cc(/C=C/C(=O)c2ccc(N3CCN(C)CC3)cc2)ccc1F : false (0)
COc1cc(C(=O)C[n+]2ccc3ccccc3c2)cc(OC)c1OC : false (0)
CCOC(=O)c1c(Nc2ccccc2)nn2c(-c3ccc(Br)cc3)ccnc12 : false (0)
CC[C@@](C)(NC(=O)C(C)(C)NC(=O)[C@@H](NC(=O)[C@@H]1CCCN1C(=O)C(C)(C)NC(=O)[C@H](CC(C)C)NC(=O)CNC(=O)C(C)(C)NC(=O)[C@@H](NC(=O)C(C)(C)NC(=O)[C@H](CCC(N)=O)NC(=O)[C@H](C)NC(=O)C(C)(C)NC(=O)[C@H](C)NC(=O)C(C)(C)NC(=O)[C@H](C)NC(=O)C(C)(C)NC(C)=O)C(C)C)C(C)C)C(=O)N[C@@H](CCC(N)=O)C(=O)N[C@@H](CCC(N)=O)C(=O)N[C@H](CO)CC1CCCCC1 : false (0)
CN1CCN(Cc2ccc(NC(=O)c3cncc(C#Cc4cnc5ccc(NC6CCOCC6)nn45)c3)cc2C(F)(F)F)CC1 : true (1)

Now for a further molecule.
Answer briefly: the call reported for `COc1ccc(-c2ccc3c4c(cccc24)C(=O)N(N2C(=O)c4cccc5cccc(c45)C2=O)C3=O)cc1` in this assay.
false (0)

###

- System: HCC-2998 colon
- assay.overview: NCI-60 one-dose screen, 48 h (100 = growth as untreated, 0 = no growth, -100 = all killed)
- experimental.context: 10 µM unless noted
The panel holds about 83,000 compounds, 20% with a hit somewhere; the sample as a whole holds those more often.
Kindly state growth for each of the entries shown.
Numbers only, in %.

Past entries and their recorded results:
CCCCCc1ccc(S(=O)(=O)N(C(C)=O)c2cccc(-c3csc(N(CCN4CCN(C)CC4)C(C)=O)n3)c2)cc1 : -81.2
CN1C(=O)N(C)C2C1NN=c1s/c(=C\c3ccccn3)c(=O)n12 (configuration not stated) : 104
COc1cc(-c2noc(C[C@@H](NC(=O)OCc3ccccc3)C(C)C)n2)cc(OC)c1OC : 103
CC1(C)CC[C@]2(C(=O)O)CC[C@]3(C)C(=CCC4[C@@]5(C)C[C@@H](O)[C@@H]6OC(c7ccccc7O)OC[C@@]6(C)C5CC[C@]43C)C2C1 (some centres not stated) : 34.9
O=C(/C=C1\C=CN(CCCCF)c2ccccc21)n1ccc2ccccc21 : 106
C#CCOc1ccccc1C(Nc1ccccc1)c1nnnn1C1CCCCC1 (configuration not stated) : 106
CS(=O)(=O)c1ccc2c(c1)c1c(n2S(=O)(=O)c2ccc(Cl)cc2)CCCC1 : 30.1
O=C(Cn1cc(CN2C(=O)c3ccc([N+](=O)[O-])cc3C2=O)nn1)Nc1ccc(F)cc1Cl : 100
O=c1c2ccccc2nc(COc2ccccc2)n1/N=C/C=C/c1ccccc1 : 101
COc1cc(CNC(=O)/C=C/c2ccccc2)ccc1OCC(=O)NO : 104

I have 5 compounds here; please give me growth for each one.
1. CCCCCCNC(=O)Oc1ccc(/C(=C(/C)c2ccc(Cl)cc2)c2ccc(OCCN3CCCC3)cc2)cc1
2. COc1cc2cc(Oc3ccc(NC(=O)Nc4cccc(C(F)(F)F)c4)cc3)c(C)nc2cc1OCCN(C)C
3. NNC(=O)c1sc2nc(-c3cnccn3)cc(-c3cccs3)c2c1N
4. O=C(NNc1nc2cc(F)ccc2n2cncc12)c1cnccn1
5. CC(=O)c1ccc(NC(=O)COc2ccc(C3SCC(=O)N3c3ccc(Br)cc3)cc2)cc1 (configuration not stated)

37.1
105
100
19.9
103

For the 3 compounds below, give their growth values.
1. Cc1cc2nc(C(Cl)Cl)nc(-c3ccco3)n2n1
2. O=C1[C@H]2Cc3c([nH]c4ccccc34)[C@H](c3ccc(Cl)cc3)N2C(=O)CN1C1CCN(Cc2c(Cl)cccc2Cl)CC1
3. COCCOc1ccc(-c2csc(NC(=O)CN3CCN(CCO)CC3)n2)cc1NS(=O)(=O)c1cccc2c(N(C)C)cccc12

1. 58.7
2. 44.1
3. 91.3

Would you be so kind as to report growth for each listed record?
1. COC1=C(c2ccccc2)C(=O)C(OC)=C(c2ccccc2)C1=O
2. C=CCn1c(SCC(=O)Nc2cccc(C(=O)/C=C/c3ccc(C)cc3)c2)nc2ccccc2c1=O
3. COc1ccc(/C=N/Nc2nc(N/N=C/c3ccc(OC)cc3O)nc(N3CCOCC3)n2)c(O)c1
4. COc1cc(O)c2c(c1)/C=C/C[C@H](O)[C@H](O)C(=O)/C=C\C[C@H](C)OC2=O
5. CCN(CC)CCN1C(=O)c2c(c3c4cc(Br)ccc4[nH]c3c3ccc4ccccc4c23)C1=O
6. C#C[C@]1(O)CC[C@H]2[C@@H]3CC=C4c5sc(Nc6ccncc6)nc5CC[C@]4(C)[C@H]3CC[C@@]21C

[94.4, 87.2, 81.1, -41.9, -89.5, 1.79]

###

- System: T-47D breast
- assay.overview: NCI-60 one-dose screen, 48 h (100 = growth as untreated, 0 = no growth, -100 = all killed)
- experimental.context: 10 µM unless noted
About 83,000 compounds went through this panel and 20% of them were active in at least one assay; those are over-represented in the sample as a whole.
Hi, to clarify the labels: Yes covers growth from 60% upward, No covers anything below 60%.

A selection of reference data follows.
CC(C)c1nn(-c2ccccc2)c(N2CCCCC2)c1/C=N/NC(N)=S : Yes
O=C(Nc1ccc(Cl)cc1)Nc1nc2ccc([N+](=O)[O-])cc2s1 : No

# bool: growth of `Cc1cn(-c2cc(NC(=O)c3cncc(C#Cc4cnc5ccc(OCCCS(C)(=O)=O)nn45)c3)cc(C(F)(F)F)c2)cn1` >= 60%
No

Identify whether the reported growth of the following compound is 60% or greater: `COc1ccc([C@H]2c3[nH]c4ccccc4c3C[C@@H]3C(=O)N(C4CCN(Cc5ccccc5)CC4)CC(=O)N23)c(OC)c1`
Yes

Textbook exercise: given the entry `C=C1C(=O)O[C@@H]2C[C@@H](C)CCC(=O)[C@](C)(OC(C)=O)C[C@H](OC(=O)/C(C)=C\C)[C@@H]12` , state whether its growth is greater than or equal to 60%.
No

###

- Test system: MCF7 breast
- assay.overview: NCI-60 one-dose screen, 48 h
- experimental.context: 10 µM unless noted
About 83,000 compounds went through this panel and 20% of them were active in at least one assay; those are over-represented in the sample as a whole. Active and inactive are the calls of the source. Rule for the calls: active = growth percent below 10; inactive = the rest.
Answer with one of the outcomes active, inactive

# lookup: test call for `C#C[C@]1(O)CC[C@H]2[C@@H]3CC=C4c5sc(Nc6cc(Cl)ccn6)nc5CC[C@]4(C)[C@H]3CC[C@@]21C`
active

Please let me know the test result on file for `C=CCn1c(SCC(=O)Nc2ccc(OC)cc2)nnc1-c1ccc(Cl)cc1` .
inactive

How did this test come out for `O=C1C[C@@H](c2ccccc2)Oc2c(Cc3ccccc3O)c(O)c(Cc3cc(Cc4cc(Cc5ccccc5O)ccc4O)ccc3O)c(O)c21` ?
inactive

Entry `O=C(c1ccc(O)cc1)[C@@H]1[C@@H]2CCCN2[C@@]2(C(=O)N(C(=O)c3ccc(F)cc3)c3ccccc32)[C@H]1c1ccc(F)cc1` : call = ?
inactive

###

- Test system: SF-268 CNS
- assay.overview: NCI-60 one-dose screen, 48 h
- experimental.context: 10 µM unless noted
This is part of a sample that, as a whole, favours compounds with a hit. Of some 83,000 tested, about 20% had one in any assay. Calls of active or inactive are those of the source. How the source made its calls: active means growth percent below 10; inactive means the rest.
Result category, one only: class 1 (active), class 0 (inactive)

Solved entries:
C=C1C(=O)O[C@@H]2C[C@@H](C)[C@H](OC)CC(=O)[C@](C)(OC(C)=O)C[C@H](OC(=O)/C(C)=C\C)[C@@H]12 : class 0
NC(=O)C(=Cc1ccc(Cl)cc1)C(N)=O : class 0

Please let me know the test result on file for `CN(C)c1ncc(/C=C2\SC(=S)N(Cc3ccccc3Cl)C2=O)s1` .
class 0

Could you check what this test reported for `COc1cc(C(=O)C[n+]2ccc3ccccc3c2)cc(OC)c1OC` ?
class 0
